# Tested on: OVCAR-3 ovarian
# Measurement protocol: NCI tumour cell line growth inhibition, 48 h
Experimental endpoint: TGI

Illustrative cases are given below, each with its answer.
# Compound, Study system, Experimental endpoint, Measured
records = [
    ("CC(=O)OC1[C@H]2c3cc4c(cc3CN3CCC(C[C@@H]1OC(C)=O)C23)OCO4 (stereo partly drawn)", "OVCAR-3 ovarian", "TGI", "> 75 µM"),
    ("COc1ccc2c(OC)c3ccoc3nc2c1O", "OVCAR-3 ovarian", "TGI", "> 100 µM"),
    ("COc1ccc(CCN2CCC(C#N)(c3ccc(OC)c(OC)c3)CC2)cc1OC", "OVCAR-3 ovarian", "TGI", "> 100 µM"),
    ("COc1ccccc1NC(=O)C(C#N)=C(SC)SC", "OVCAR-3 ovarian", "TGI", "> 100 µM"),
    ("Cc1ccc(S(=O)(=O)N/N=C2\\C(=O)C3CC2C(Cl)C3Cl)cc1 (stereo not drawn)", "OVCAR-3 ovarian", "TGI", "> 100 µM"),
]

Query string: What value of measured TGI is listed for CN(C(=O)C1=CCCCCC1)c1ccccc1I ?
Result string: > 100 µM
